Measured IC50, listed per entry.
molecular target: human PI4KIII-beta 13-828 (D316-330) (Homo sapiens, UniProt Q9UBF8); construct: human PI4KIII-beta 13-828 (D316-330); experiment: PI4 KB Activity Assay (ADP-GLO Kinase assay); assay type: biochemical; details: 1 mM ATP, 60 μM phosphatidylinositol, 3 hours at room temperature; read-out: mean pIC50 (converted)
Sequence (Q9UBF8 1-801 isoform Q9UBF8-2): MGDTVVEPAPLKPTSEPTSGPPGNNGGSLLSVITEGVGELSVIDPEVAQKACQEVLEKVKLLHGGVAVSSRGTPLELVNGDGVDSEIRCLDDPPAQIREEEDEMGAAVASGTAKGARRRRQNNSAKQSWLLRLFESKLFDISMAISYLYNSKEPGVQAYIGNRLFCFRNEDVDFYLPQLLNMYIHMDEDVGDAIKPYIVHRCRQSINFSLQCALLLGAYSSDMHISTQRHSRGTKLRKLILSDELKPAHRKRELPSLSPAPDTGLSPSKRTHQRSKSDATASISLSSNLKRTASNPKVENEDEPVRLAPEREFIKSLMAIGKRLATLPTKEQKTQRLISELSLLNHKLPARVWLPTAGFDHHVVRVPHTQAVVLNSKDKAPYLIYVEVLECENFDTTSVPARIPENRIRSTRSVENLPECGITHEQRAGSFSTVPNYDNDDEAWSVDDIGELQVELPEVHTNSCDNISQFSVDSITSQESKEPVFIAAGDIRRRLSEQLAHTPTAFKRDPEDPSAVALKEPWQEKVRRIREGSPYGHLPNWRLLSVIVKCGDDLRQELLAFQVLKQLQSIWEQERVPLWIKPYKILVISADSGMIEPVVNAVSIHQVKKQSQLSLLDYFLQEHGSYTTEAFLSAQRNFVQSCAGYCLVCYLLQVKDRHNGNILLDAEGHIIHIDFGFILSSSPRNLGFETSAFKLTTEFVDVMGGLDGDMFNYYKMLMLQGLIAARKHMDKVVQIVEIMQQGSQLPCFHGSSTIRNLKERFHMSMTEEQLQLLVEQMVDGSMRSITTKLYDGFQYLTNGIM

Example entries and their recorded answers appear below.
Cc1nn2c(NCc3cccc(-c4nccn4C)c3)cc(C(C)(C)O)nc2c1-c1cccc(C(=O)N(C)CCCO)c1 [Compound 87] | ≤ 3.98 nM
CCC(O)c1cc(NCc2cccc(-c3nccn3C)c2)n2nc(C)c(-c3ccc(OC)c(C(=O)N(C)C4CCOCC4)c3)c2n1 (single isomer, unassigned) [Compound 77] | ≤ 3.98 nM

Now for a further molecule.
Data request: Need IC50, item COc1ccc(-c2c(C)nn3c(NCc4cccc(-c5nccn5C)c4)cc(C(C)O)nc23)cc1C(=O)N(C)CCCO (stereo not drawn) [Compound 9]
Data returned: ≤ 3.98 nM

----------
# IC50 annotations
target: human PI4KIII-beta 13-828 (D316-330) (Homo sapiens); construct: human PI4KIII-beta 13-828 (D316-330); assay: PI4 KB Activity Assay (ADP-GLO Kinase assay); type: biochemical; details: 1 mM ATP, 60 μM phosphatidylinositol, 3 hours at room temperature; read-out: mean pIC50 (converted)

COc1ccc(-c2c(C)nn3c(NCc4cccc(-c5nccn5C)c4)cc(C(C)(C)O)nc23)cc1C(=O)N1CCCC1CO (stereo not drawn) | ≤ 3.98 nM

Data request: What is its IC50 for human PI4KIII-beta 13-828 (D316-330) (Homo sapiens)? Entry: "COc1ccc(-c2c(C)nn3c(NCc4cccc(-c5nccn5C)c4)cc(C(C)(C)CO)nc23)cc1S(=O)(=O)CCO"
Data returned: ≤ 3.98 nM

Data request: Give human PI4KIII-beta 13-828 (D316-330) (Homo sapiens) IC50 for Cc1ccc(-c2c(C)nn3c(NCc4cccc(-c5nccn5C)c4)cc(C(C)(C)O)nc23)cc1C(=O)N(C)CC(C)O (single isomer, unassigned) [Compound 62]
Data returned: ≤ 3.98 nM

----------
Listing: IC50 of selected molecules
target: human PI4KIII-beta 13-828 (D316-330) (Homo sapiens); construct: human PI4KIII-beta 13-828 (D316-330); assay: PI4 KB Activity Assay (ADP-GLO Kinase assay); format: biochemical; conditions: 1 mM ATP, 60 μM phosphatidylinositol, 3 hours at room temperature; read-out: mean pIC50 (converted)

Worked examples follow.
Cc1ccc(-c2c(C)nn3c(NCc4cccc(-n5cccn5)c4)cc(C(C)(C)O)nc23)cc1C(=O)N1CC[C@H](O)C1 | ≤ 3.98 nM
COc1ccc(-c2c(C)nn3c(NCc4cccc(-n5cccn5)c4)cc(C(C)(C)O)nc23)cc1C(=O)N1CCC(C)(O)C1 (stereo not drawn) | ≤ 3.98 nM

Data request: I'd like to know its IC50. The molecule in question is "Cc1ccc(-c2c(C)nn3c(NCc4cccc(-n5cccn5)c4)cc(C(C)(C)O)nc23)cc1C(=O)N1CCC[C@@H]1CO"
Data returned: ≤ 3.98 nM

----------
assay: Human Microsomal Metabolic Stability Assay; format: in vitro ADME; conditions: 0.5 μM test compound, 0.5 mg/mL microsomal protein, 45 min
measurement label: intrinsic clearance (mL/min/g)
The reply should contain only the number, in mL/min/g.

Take a look at these entries with their results.
CCN(CCO)C(=O)c1cc(-c2c(C)nn3c(NCc4cccc(-c5nccn5C)c4)cc(C(C)(C)O)nc23)ccc1OC | 11.6
Cc1ccc(-c2c(C)nn3c(NCc4cccc(-c5nccn5C)c4)cc(C(C)(C)O)nc23)cc1C(=O)N(C)[C@@H](C)CO | 33.7
Cc1ccc(-c2c(C)nn3c(NCc4cccc(-c5nccn5C)c4)cc(C(C)(C)O)nc23)cc1C(=O)N(C)CCCO | 28.9

Data request: Fill blank: measured intrinsic clearance of the molecule "COc1ccc(-c2c(C)nn3c(NCc4cccc(-c5nccn5C)c4)cc(C(C)(C)O)nc23)cc1C(=O)N(C)C1CCOCC1" is ____.
Data returned: 34.0

# credit: patent US11649238B2
